I'd be grateful if you could share measured GI50 for these entries.
# Test system: MDA-MB-435
# assay notes: NCI tumour cell line growth inhibition, 48 h
Active and inactive are the calls of the source. Cut-off read from the data, not from the text of the source: active = GI50 up to about 1.1 µM and inactive = higher.

Query :: Fill blank: measured GI50 of the molecule `Cc1cn(CCCCCCC2=NCCCN2)c(=O)[nH]c1=O` is ____.
Result :: > 100 µM (inactive)

Query :: Ok, now `Cc1c(/C=N\NC(=S)NCCNC(=S)N/N=C\c2c(C)n(C)n(-c3ccccc3)c2=O)c(=O)n(-c2ccccc2)n1C`
Result :: 92.5 µM (inactive)

Query :: Ok, now `O=C(NCCCNCCN1C(=O)c2cccc3cc([N+](=O)[O-])cc(c23)C1=O)c1cc(-c2ccccc2)nc2ccccc12`
Result :: 1.46 µM (inactive)

Query :: Ok, now `CC(=O)Nc1ccc(Nc2nc(=O)[nH]c(=O)[nH]2)cc1`
Result :: > 100 µM (inactive)

Query :: Ok, now `O=C1Nc2ccccc2/C1=N/NC(=S)Nc1ccc(Cl)cc1`
Result :: 39.8 µM (inactive)

Query :: Ok, now `CC(C)CCC/C(CBr)=C(\Cl)CCl`
Result :: 2.36 µM (inactive)

Query :: Ok, now `CO/N=C(\C)CCC#Cc1ccccc1C(=O)OC`
Result :: > 10 µM (inactive)

Query :: Ok, now COC(=O)C1C(OC(=O)c2ccccc2)CC2CCC1N2C(N)=O (stereo not drawn)
Result :: > 100 µM (inactive)
